Recorded values, source ChEMBL document CHEMBL4393696.

# target.or.test.system: Carbonic anhydrase 2 (Homo sapiens, UniProt P00918)
This listing pairs compounds with measured Ki.

Here's what some known entries look like.
# compound, target.or.test.system, Ki
data = [
    ("O=c1cc(-c2ccccc2)[s+]([O-])[nH]1 (stereo unspecified)", "Carbonic anhydrase 2 (Homo sapiens, UniProt P00918)", "> 10 µM"),
    ("CC(C)(C)n1c(=O)cc(-c2cn(S(=O)(=O)c3ccccc3)c3ccccc23)[s+]1[O-] (stereo unspecified)", "Carbonic anhydrase 2 (Homo sapiens, UniProt P00918)", "2.11 µM"),
    ("CC(C)(C)N1C(=O)C=C(c2ccccc2)S1(=O)=O", "Carbonic anhydrase 2 (Homo sapiens, UniProt P00918)", "1.57 µM"),
]

Q) Which Ki reading was recorded for the compound COc1cc(-c2cc(=O)n(C(C)(C)C)[s+]2[O-])cc(OC)c1OC (stereo unspecified) ?
A) > 10 µM

Q) Continue with `CC(C)(C)N1C(=O)C=C(c2cc3ccccc3n2S(=O)(=O)c2ccccc2)S1(=O)=O`
A) > 10 µM

Q) Continue with O=c1cc(-c2cn(S(=O)(=O)c3ccccc3)c3ccccc23)[s+]([O-])[nH]1 (stereo unspecified)
A) > 10 µM
